tested.on: T1, APC9806-AA
T1 chain: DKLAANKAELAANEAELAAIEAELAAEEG
assay.remarks: two-hybrid library CCmax;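 note: natural log of median RNA to DNA barcode read ratio; higher means stronger binding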
measurement.conditions: mean of both orientations
quantity: interaction score
Write no unit; give the number alone.

# binder, interaction score
records = [
    ("DEAAALEAENAALEAKLAAEKAENAALEG [APC2474-AA]", -1.64),
    ("DKAAALKAKAAALKAKNAALKAENAALEG [APC3354-AA]", -1.33),
    ("DEAAALEAEAAALEAKNAALKAKLAAEKG [APC2257-AA]", -1.79),
    ("DELAAIEAEAAALEAEAAALEAEAAALEG [APC222-AA]", -1.68),
    ("DENAALEAKAAALKAKAAALKAELAAEEG [APC4336-AA]", -1.53),
    ("DELAAEEAELAAIEAELAANEAELAANEG [APC6088-AA]", -1.36),
    ("DEAAALEAKLAAEKAEAAALEAENAALEG [APC2724-AA]", -1.79),
    ("DENAALEAKLAAIKAELAAIEAELAAIEG [APC4100-AA]", -1.87),
]

Q. Would you mind telling me what interaction score value was observed for DEAAALEAKLAANKAELAANEAKLAAIKG [APC2981-AA] ?
A. -1.51

Q. Param item = DKLAAIKAEAAALEAENAALEAEAAALEG [APC1242-AA] ; retrieve measured interaction score.
A. -1.43

Q. Sample DKLAAIKAKLAAIKAKLAAIKAKNAALKG [APC1115-AA] — what was its interaction score?
A. -1.67

Q. For the binder shown here, DKAAALKAKAAALKAEAAALEAKAAALKG [APC3323-AA] , give the reported interaction score.
A. -1.66

Q. # get_value(readout='interaction score', item= DEAAALEAKNAALKAENAALEAKAAALKG [APC2543-AA] )
A. -1.56

Q. Recorded interaction score for DKLAAIKAKLAANKAKLAAIKAELAAEEG [APC1916-AA] , please?
A. -2.04

From: paper PMC10397247
